The following compounds are shown together with reported (C) Cholesterol (%), change vs placebo-treated control animals values.
test system: fed, healthy rats; assay: Cholesterol-lowering effect in blood plasma of fed, healthy rats; format: in vivo, rat (male Sprague-Dawley); conditions: oral 100 μmol/kg for 16 days, 24 hours after last administration, mean of 10
Quick reminder: number only, in %, skip the unit.

Examples from the recorded data:
CCOC(=O)C1(CCCCCCOc2ccc(Cl)cc2)CO1 (stereo not shown); −15
CCOC(=O)C1(CCCCCOc2ccc(C(C)=O)cc2)CO1 (stereo not shown); −8

# (C) Cholesterol (%), change vs placebo-treated control animals lookup, item CCOC(=O)C1(CCCCCCOc2ccc(OC(F)F)cc2)CO1 (stereo not shown)
−13

Quick check: (C) Cholesterol (%), change vs placebo-treated control animals of CCOC(=O)C1(CCCCCOc2ccc(OC(F)F)cc2)CO1 (stereo not shown) ?
−26
